tgt: UniProt:P35222
Sequence (P35222 1-781): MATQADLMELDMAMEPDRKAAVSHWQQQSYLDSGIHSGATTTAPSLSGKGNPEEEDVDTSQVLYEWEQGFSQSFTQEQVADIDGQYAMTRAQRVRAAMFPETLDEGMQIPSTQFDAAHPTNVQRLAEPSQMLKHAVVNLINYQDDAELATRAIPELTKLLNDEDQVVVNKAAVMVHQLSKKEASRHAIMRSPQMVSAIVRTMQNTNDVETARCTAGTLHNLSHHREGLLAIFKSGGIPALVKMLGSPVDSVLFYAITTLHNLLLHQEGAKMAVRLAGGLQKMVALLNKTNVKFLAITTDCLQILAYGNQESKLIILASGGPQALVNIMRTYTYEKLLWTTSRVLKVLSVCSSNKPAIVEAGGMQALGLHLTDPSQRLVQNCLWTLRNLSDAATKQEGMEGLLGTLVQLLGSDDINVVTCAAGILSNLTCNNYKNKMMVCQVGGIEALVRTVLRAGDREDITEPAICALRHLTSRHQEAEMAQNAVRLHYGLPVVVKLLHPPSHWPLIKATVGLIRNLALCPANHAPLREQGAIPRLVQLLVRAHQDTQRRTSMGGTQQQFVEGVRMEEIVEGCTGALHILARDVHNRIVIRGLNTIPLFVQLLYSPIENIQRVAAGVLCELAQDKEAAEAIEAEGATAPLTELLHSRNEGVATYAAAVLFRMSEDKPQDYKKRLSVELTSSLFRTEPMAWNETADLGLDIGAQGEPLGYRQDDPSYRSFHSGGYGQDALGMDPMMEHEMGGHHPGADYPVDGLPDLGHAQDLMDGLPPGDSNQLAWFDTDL
experiment: KD50 measurement using competitive fluorescence polarization (FP) with labelled TCF4
Type: binding
measurement_conditions: fluorescence polarization, β-catenin; read-out: β-Cat FP KD
pKd: −log10 of the molar value. Where a SMILES comes first, the peptide text is derived from it.
observed_property: pKd

{"compound": "CC[C@H](C)[C@H](NC(=O)[C@H](CC(C)C)NC(=O)[C@H](Cc1ccccc1)NC(=O)[C@H](Cc1c[nH]c2ccccc12)NC(=O)[C@H](CCSC)NC(C)=O)C(=O)N[C@@H](CS)C(=O)N[C@@H](Cc1ccccc1)C(=O)N[C@@H](Cc1c[nH]c2ccccc12)C(=O)NCCCC(=O)O [compound 197] (HELM PEPTIDE1{[ac].M.W.F.L.I.C.F.W.[O=C(O)CCCN[*:1]]}$$$$V2.0)", "pKd": "6.00 to 6.40"}

Okay, next one:
For the compound CC[C@H](C)[C@H](NC(=O)[C@H](CC(C)C)NC(=O)[C@H](Cc1ccccc1)NC(=O)[C@H](Cc1c[nH]c2ccccc12)NC(=O)[C@H](CCSC)NC(=O)[C@H](CCCNC(=N)N)NC(=O)[C@H](CO)NC(=O)[C@@H](N)CCSC)C(=O)N[C@@H](CO)C(=O)N[C@@H](Cc1ccccc1)C(=O)N[C@@H](CCCNC(=N)N)C(=O)NCC(=O)O [compound 69] (H-MSRMWFLISFRG-OH) , the measured pKd on UniProt:P35222 was > 6.40
